Exercise: state measured MFI for each of the binders provided.
- MEASURED TARGET: T1, human TMEM106B (human, UniProt Q9NUM4 2-274)
- T1 construct: full-length, transiently expressed on HEK293 cells, or natively expressed on HeLa, U251 and A549 cells (the cell is named under assay); also the source of the Pepscan peptides; also called huTMEM106B; huTMEM
- ASSAY COMMENT: FACS U251
Express the result in MFI but write the number alone.

// returns reported MFI for input TM-37 (antibody, V domains shown) VH: QVQLQQSGAELAKPGASVKLSCKASGYTFTSYWMHWVKQRPGQGLEWIGYVNPSSGYTKNNQKFKDKVTLTADKSSSTAYMQLSSLTYEDSAVYYCAREGGSISDWYFDVWGTGTTVTVSS VL: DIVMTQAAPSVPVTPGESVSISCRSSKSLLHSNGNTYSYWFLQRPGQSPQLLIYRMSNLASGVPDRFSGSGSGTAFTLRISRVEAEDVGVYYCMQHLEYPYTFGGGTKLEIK
408

Next entry: TM-31 (antibody, V domains shown, mouse IgG (hybridoma)) VH: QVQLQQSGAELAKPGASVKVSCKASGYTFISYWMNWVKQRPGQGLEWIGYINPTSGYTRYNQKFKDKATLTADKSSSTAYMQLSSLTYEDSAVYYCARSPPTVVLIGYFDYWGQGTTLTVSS VL: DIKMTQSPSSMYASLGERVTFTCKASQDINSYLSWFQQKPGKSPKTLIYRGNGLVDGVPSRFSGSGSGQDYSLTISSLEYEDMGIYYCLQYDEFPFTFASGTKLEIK
352

Field entry: TM-33 (antibody, V domains shown, mouse IgG (hybridoma)) VH: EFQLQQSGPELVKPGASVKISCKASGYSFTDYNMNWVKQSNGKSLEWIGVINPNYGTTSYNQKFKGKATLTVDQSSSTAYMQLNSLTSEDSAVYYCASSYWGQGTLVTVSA VL: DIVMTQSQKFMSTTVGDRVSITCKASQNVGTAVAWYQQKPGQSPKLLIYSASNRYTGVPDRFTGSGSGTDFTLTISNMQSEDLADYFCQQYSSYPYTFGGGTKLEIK
202

Param item: TM-35 (antibody, V domains shown) VH: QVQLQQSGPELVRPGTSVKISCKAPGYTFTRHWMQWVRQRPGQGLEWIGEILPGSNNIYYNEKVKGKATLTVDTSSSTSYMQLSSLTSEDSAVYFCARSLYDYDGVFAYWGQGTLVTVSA VL: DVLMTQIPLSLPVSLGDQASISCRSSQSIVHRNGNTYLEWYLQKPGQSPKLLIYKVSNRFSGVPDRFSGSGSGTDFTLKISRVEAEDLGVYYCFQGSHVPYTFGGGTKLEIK
370

What do we get for TM-9 (antibody, V domains shown) VH: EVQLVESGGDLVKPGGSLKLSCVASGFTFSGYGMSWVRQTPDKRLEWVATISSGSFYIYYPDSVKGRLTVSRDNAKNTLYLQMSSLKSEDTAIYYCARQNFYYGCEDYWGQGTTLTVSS VL: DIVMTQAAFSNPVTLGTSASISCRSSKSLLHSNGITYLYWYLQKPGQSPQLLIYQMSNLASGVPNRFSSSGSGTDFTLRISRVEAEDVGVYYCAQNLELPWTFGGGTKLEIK ?
1540
